Each record here notes measured TGI.
tested on: KM12 colon; assay: NCI tumour cell line growth inhibition, 48 h

compound: CCC12CN(C(=O)OC)C3C(Br)C1CCC(=O)C32 (stereo not given)
TGI: > 100 µM

[Q] GET /values?readout=TGI&item= O=C(/C=C/c1ccc(O)c(O)c1)O[C@H]1CCCC[C@@H]1OC(=O)/C=C/c1ccc(O)c(O)c1
[A] 73.3 µM

[Q] GET /values?readout=TGI&item= C=CCC(O)c1cc(OC)ccc1OC (stereo not given)
[A] > 100 µM

###

Each record here notes measured GI50.
test system: RXF 393 renal; experiment: NCI tumour cell line growth inhibition, 48 h

[Q] Which GI50 is reported with RXF 393 renal for this entry: C=CC(=O)OCCCS(=O)(=O)[O-].C=CC(=O)OCCCS(=O)(=O)[O-].NC1CCCCC1N.[Pt+4] ?
[A] > 25 µM

[Q] Which GI50 is reported with RXF 393 renal for this entry: Clc1ccc2c(NCCNc3nc(N4CCCCC4)nc4ccccc34)ccnc2c1 ?
[A] 1.81 µM

[Q] Which GI50 is reported with RXF 393 renal for this entry: COc1ccc(-n2nc(C(=O)NCC(=O)Nc3nc4cc(OC)ccc4s3)c3ccccc3c2=O)cc1 ?
[A] 0.698 µM

[Q] Which GI50 is reported with RXF 393 renal for this entry: COc1ccc(-n2nc(C(=O)c3ccccc3)c3nn4c(=O)cc(-c5ccccc5)nc4nc32)cc1 ?
[A] > 100 µM

[Q] Which GI50 is reported with RXF 393 renal for this entry: CC[C@H](C)C(=O)O[C@H]1C[C@@H](C)C=C2C=C[C@H](C)[C@H](CC[C@@H]3C[C@@H](O)CC(=O)O3)[C@H]21 ?
[A] 3.48 µM

[Q] Which GI50 is reported with RXF 393 renal for this entry: NC(N)=N/N=C/c1c(-c2cccs2)nc2n1CCS2 ?
[A] 77.7 µM

[Q] Which GI50 is reported with RXF 393 renal for this entry: CCOC(=O)CCCOc1cc(-c2ccccc2F)nc2cc3c(cc12)OCO3 ?
[A] 25 µM

[Q] Which GI50 is reported with RXF 393 renal for this entry: C=C(C)[C@@H]1CC[C@]2(COC(=O)c3ccccc3C(=O)O)CC[C@]3(C)[C@H](CC[C@@H]4[C@@]5(C)CC[C@H](OC(=O)c6ccccc6C(=O)O)C(C)(C)[C@@H]5CC[C@]43C)[C@@H]12 ?
[A] 22.6 µM

###

test system: SK-MEL-28 melanoma; assay: NCI tumour cell line growth inhibition, 48 h
experimentalEndpoint: TGI (µM)
Only the number, expressed in µM, is required.

Recorded TGI, per entry:
molecule: CCOc1cc(CCNC)c2c(ccc3ccc(OC)c(O)c32)c1OC
TGI (µM): 37.8
--
molecule: CCOC(=O)/C=C(/C(=O)OCC)n1cc(C)c(=O)[nH]c1=O
TGI (µM): 15.5
--
molecule: CC(=O)OCCC/C(=C/c1cc2ccccc2c2ccccc12)[N+](=O)[O-]
TGI (µM): 2.99
--
molecule: CN1CCC(n2cnc(-c3ccc(F)cc3)c2-c2ccnc(Nc3ccccc3)n2)CC1
TGI (µM): 11
--
molecule: COc1cc(NC(=O)c2cc3ccccc3cc2O)c(OC)cc1Cl
TGI (µM): 10.7

[Q] Which TGI is reported with SK-MEL-28 melanoma for this entry: Clc1ccc2c(NCCNc3nc(N4CCCCC4)nc4ccccc34)ccnc2c1 ?
[A] 3.52

[Q] Which TGI is reported with SK-MEL-28 melanoma for this entry: NC(=O)/C=C/c1c[nH]c2nccnc12 ?
[A] 4.26

[Q] Which TGI is reported with SK-MEL-28 melanoma for this entry: C=C(CN(C)C)C(=O)c1ccccc1Cl ?
[A] 19.4

[Q] Which TGI is reported with SK-MEL-28 melanoma for this entry: C#C[C@]1(O)[C@@H](CO)O[C@@H](n2ccc(=O)[nH]c2=O)[C@@H]1O ?
[A] 31.3

[Q] Which TGI is reported with SK-MEL-28 melanoma for this entry: COc1ccc(C#CC2=C(Br)C(=O)OC2)cc1 ?
[A] 23.3

[Q] Which TGI is reported with SK-MEL-28 melanoma for this entry: COc1ccc(-n2nc(C(=O)NCC(=O)Nc3nc4cc(OC)ccc4s3)c3ccccc3c2=O)cc1 ?
[A] 2.3

[Q] Which TGI is reported with SK-MEL-28 melanoma for this entry: COC(=O)[C@]12CC[C@@H](C)[C@H](C)[C@@H]1C1=CC[C@@H]3[C@@]4(C)C(C=O)=C[C@@](C)(COC(=O)c5ccco5)C4=CC[C@@]3(C)[C@]1(C)CC2 ?
[A] 3.01

[Q] Which TGI is reported with SK-MEL-28 melanoma for this entry: CC12OC(C(=O)C13CCC3)C1C(=O)c3c(O)ccc(O)c3C(=O)C12 (stereo not given) ?
[A] 6.35

[Q] Which TGI is reported with SK-MEL-28 melanoma for this entry: COc1ccc2cn3c4ccc(O)cc4[nH]c(=O)c3c2c1 ?
[A] 17.3

[Q] Which TGI is reported with SK-MEL-28 melanoma for this entry: CCCCCCCCCc1cc(=O)c2c(O)cc(O)cc2o1 ?
[A] 52.2

[Q] Which TGI is reported with SK-MEL-28 melanoma for this entry: N#CC(C#N)[C@@H]1CCC=C(Sc2ccccc2)[C@H]1Sc1ccccc1 ?
[A] 7.57
